Tested on: HBV (HepG2.117 cell line, inducibly HBV producing)
ASSAY NAME: Anti-HBV activity: intracellular HBV DNA by real-time PCR in HepG2.117 cells after 3 days of treatment
Format: cell-based, hepatitis B virus
STUDY CONDITIONS: Hepatitis B virus, HepG2.117, 72 h, HepG2.117 cells, 3 days of treatment, intracellular HBV DNA by real-time PCR; mean value; read-out: EC50 (μM, mean value)
PARAMETER: EC50 (µM)
Numbers only, in µM.

Below are worked cases with known answers.
CNC(=O)c1ccc(-n2c(N[C@@H](C)c3ccccc3)nc3c(c2=O)C[C@@H](C)N(C(=O)c2ccc(Cl)c(Cl)c2)C3)cc1 :: 0.1
COc1ccc(CNc2nc3c(c(=O)[nH]2)CCN(C(=O)c2ccc(Br)c(C#N)c2)C3)cc1 :: 6.81

Reported EC50, compound CC(C)Nc1nc2c(c(=O)n1-c1ccc(C(=O)NCC(C)(C)C(=O)O)cc1)C[C@@H](C)N(C(=O)c1ccc(Cl)c(Cl)c1)C2 : ____
14.6
